systemName: hERG potassium channel (Homo sapiens, UniProt Q12809)
Sequence (Q12809 whole entry): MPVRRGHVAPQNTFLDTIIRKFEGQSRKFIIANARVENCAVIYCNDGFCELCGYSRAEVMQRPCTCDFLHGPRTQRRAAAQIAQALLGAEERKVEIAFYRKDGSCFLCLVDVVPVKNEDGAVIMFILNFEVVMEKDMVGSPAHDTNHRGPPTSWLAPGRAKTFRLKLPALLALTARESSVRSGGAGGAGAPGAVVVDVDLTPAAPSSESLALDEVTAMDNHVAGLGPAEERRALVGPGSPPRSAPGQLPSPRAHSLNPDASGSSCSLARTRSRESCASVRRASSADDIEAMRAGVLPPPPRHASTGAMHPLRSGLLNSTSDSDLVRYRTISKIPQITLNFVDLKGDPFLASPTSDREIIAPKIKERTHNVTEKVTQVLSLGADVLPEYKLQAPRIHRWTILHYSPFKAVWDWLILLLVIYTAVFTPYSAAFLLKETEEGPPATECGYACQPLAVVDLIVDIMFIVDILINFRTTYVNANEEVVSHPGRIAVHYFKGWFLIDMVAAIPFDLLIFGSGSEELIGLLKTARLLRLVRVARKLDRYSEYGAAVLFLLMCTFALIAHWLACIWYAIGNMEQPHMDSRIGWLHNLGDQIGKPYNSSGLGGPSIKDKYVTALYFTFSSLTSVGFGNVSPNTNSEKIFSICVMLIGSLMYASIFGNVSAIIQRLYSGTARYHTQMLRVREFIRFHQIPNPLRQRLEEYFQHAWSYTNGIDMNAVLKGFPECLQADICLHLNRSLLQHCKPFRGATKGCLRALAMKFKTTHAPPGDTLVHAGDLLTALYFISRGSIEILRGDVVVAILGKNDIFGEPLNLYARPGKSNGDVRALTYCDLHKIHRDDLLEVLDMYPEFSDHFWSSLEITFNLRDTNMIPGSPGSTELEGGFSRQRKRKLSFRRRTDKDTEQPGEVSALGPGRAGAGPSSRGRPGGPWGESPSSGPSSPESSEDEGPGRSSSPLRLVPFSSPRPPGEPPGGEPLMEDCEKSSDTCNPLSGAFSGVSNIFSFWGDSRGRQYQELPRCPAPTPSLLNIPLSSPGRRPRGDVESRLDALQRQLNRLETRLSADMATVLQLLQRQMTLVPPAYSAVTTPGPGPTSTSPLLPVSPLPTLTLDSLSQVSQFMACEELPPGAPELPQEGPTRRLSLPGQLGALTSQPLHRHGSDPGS
testMethodNotes: Whole cell patch clamp of cloned hERG potassium channels expressed in HEK293 cells
Type: cell-based
measurementContext: human, HEK293 cells stably expressing hERG, pH 7.4; 10 μM, HEK293/hERG, room temperature; read-out: Mean percentage of hERG current inhibited
inhibition at 10 µM: recorded values
Report as: number unit

Sample answers from the record:
CC(C)(C)NCc1cc(C(C)(C)C)cc(-c2ccc(C(F)(F)F)nc2)c1O.Cl [Example 1, hydrochloride]: 48.5%
CC(C)(C)NCc1cc(C(C)(C)C)cc(-c2cnc(C(F)(F)F)c(F)c2)c1O.Cl [Example 34, hydrochloride]: 15.9%
CC(C)(C)NCc1cc(C(C)(C)C)cc(-c2ccc(Cl)cc2)c1O [WR-194,965, reference compound]: 97.2%

Note: attention shifts to another entry.
Under hERG potassium channel (Homo sapiens, UniProt Q12809): inhibition at 10 µM value of CC(C)(C)NCc1cc(C(C)(C)C)cc(-c2cnc(C(F)(F)F)nc2)c1O.Cl [Example 33, hydrochloride] ?
12.9%

---

systemName: hERG potassium channel (Homo sapiens)
testMethodNotes: Whole cell patch clamp of cloned hERG potassium channels expressed in HEK293 cells
Type: cell-based
measurementContext: human, HEK293 cells stably expressing hERG, pH 7.4; 0.3 μM, HEK293/hERG, room temperature; read-out: Mean percentage of hERG current inhibited
measurementLabel: inhibition at 0.3 µM (%)
API: value field is a number in %; no unit string.

Under hERG potassium channel (Homo sapiens): inhibition at 0.3 µM value of CC(C)(C)NCc1cc(C(C)(C)C)cc(-c2ccc(Cl)cc2)c1O [WR-194,965, reference compound] ?
12.8

---

Average Days Survival: recorded values
System: Plasmodium berghei (KBG-173 strain)
testMethodNotes: Plasmodium berghei assay in vivo (modified Thompson Test) in CD-1 mice
measurementContext: 32 mg/kg/day oral, bid on days 3, 4 and 5; 31 day experiment
Experimental: In vivo antimalarial activity was tested in male or female Charles River CD-1 mice that were 4-5 weeks old and weighed 20-25 g They were housed in groups of 3 or 4 in standard plastic cages with wire tops, Bed-o-Cob® bedding, 12 hr/day of light, and maintained at 75° F. They were fed a standard Ralston Purina mouse chow and the cages and bottles were changed twice a week. […] The amount of drug was calculated on the free base weight. […]
Marks after values point to notes of the source that are not given here.

CC(C)(C)NCc1cc(C(C)(C)C)cc(-c2ccc(C(F)(F)F)nc2)c1O.Cl: >31* days
CC(C)(C)NCc1cc(C(C)(C)C)cc(-c2cnc(C(F)(F)F)c(F)c2)c1O.Cl: >31* days
CC(C)(C)c1cc(CN(CC2CCCCC2)C(C)(C)C)c(O)c(-c2ccc(C(F)(F)F)nc2)c1.Cl: >26 days
CC(C)(C)NCc1cc(C(C)(C)C)cc(-c2cnc(C(F)(F)F)c(Cl)c2)c1O.Cl: >31* days
CC(C)(C)NCc1cc(-c2ccc(F)cc2)cc(-c2ccc(C(F)(F)F)nc2)c1O.Cl: >24 days
CC(C)(C)NCc1cc(C(C)(C)C)cc(-c2cnc(Cl)c(Cl)c2)c1O.Cl: >31* days
CC(C)(C)NCc1cc(-c2ccc(Cl)cc2)cc(-c2ccc(C(F)(F)F)nc2)c1O.Cl: >31* days
CC(C)(C)NCc1cc(C(C)(C)C)cc(-c2cnc(C(F)(F)F)nc2)c1O.Cl: >31* days

Under Plasmodium berghei (KBG-173 strain): Average Days Survival value of CC(C)(C)c1cc2c(c(-c3ccc(C(F)(F)F)nc3)c1)OCN(C(C)(C)C)C2 ?
>31* days
